Biological target: T1, IGFBP-1 (human, UniProt P08833 26-259)
T1 construct: Biotinylated in the ELISA assays; also called rhIGFBP-1
T1 sequence (looked up): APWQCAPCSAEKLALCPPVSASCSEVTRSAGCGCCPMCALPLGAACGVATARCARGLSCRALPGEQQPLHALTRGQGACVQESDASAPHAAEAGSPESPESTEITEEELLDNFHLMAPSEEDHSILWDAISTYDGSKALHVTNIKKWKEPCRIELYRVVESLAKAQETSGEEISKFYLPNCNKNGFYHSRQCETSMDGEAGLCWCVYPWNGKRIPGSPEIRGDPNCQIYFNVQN
Test: biotinylated-IGFBP-1 ELISA: peptide inhibits IGFBP-1 binding to IGF-I; ratio to bp1-01 (wt)
Positions of bridges follow the written chain, without caps; N, C: chain ends. Non-standard residues stand in square brackets, D forms with d. No end group written: not given here. Aib = CC(C)(N)C(=O)O
IC50 (mut)/IC50 (wt) under 3 ratio gets TRUE, anything at or over 3 ratio gets FALSE.

>>> label_class("CRAGPLQWLCE[Aib]YFG (disulfide 1-10, Non-natural variant of bp1-01; X stands for aib) [bp1-01 K12aib]")
"TRUE"
>>> label_class("C[dA]AGPLQWLCEKYFG (disulfide 1-10, Non-natural variant of bp1-01 (a = D-alanine)) [bp1-01 R2a]")
"FALSE"
>>> label_class("CRAGPLQWLCEK[Aib]FG (disulfide 1-10, Non-natural variant of bp1-01; X stands for aib) [bp1-01 Y13aib]")
"FALSE"
>>> label_class("CRAGPLQW[Aib]CEKYFG (disulfide 1-10, Non-natural variant of bp1-01; X stands for aib) [bp1-01 L9aib]")
"FALSE"
>>> label_class("CRAGPLQWLC[Aib]KYFG (disulfide 1-10, Non-natural variant of bp1-01; X stands for aib) [bp1-01 E11aib]")
"TRUE"
